# Lookup of reported log10(IC50) keyed by entry
# tgt: h5-HT4b (Homo sapiens, UniProt Q13639)
# Construct: expressed in transfected cells; host or cells: HEK 293 (clone 9), membrane preparation
# Sequence (Q13639 whole entry): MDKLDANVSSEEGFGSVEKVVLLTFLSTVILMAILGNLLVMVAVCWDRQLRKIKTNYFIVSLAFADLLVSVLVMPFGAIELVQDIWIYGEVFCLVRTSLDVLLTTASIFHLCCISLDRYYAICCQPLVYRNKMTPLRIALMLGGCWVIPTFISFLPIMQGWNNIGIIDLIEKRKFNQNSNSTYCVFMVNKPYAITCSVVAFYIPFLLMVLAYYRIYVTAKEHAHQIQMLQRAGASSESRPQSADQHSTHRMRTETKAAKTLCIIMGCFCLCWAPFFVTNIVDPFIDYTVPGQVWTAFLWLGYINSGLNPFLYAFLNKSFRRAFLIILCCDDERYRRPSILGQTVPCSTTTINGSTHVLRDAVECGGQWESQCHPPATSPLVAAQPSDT
# protocol-text: 5HT4 antagonism: [3H]GR113808 binding to membranes of h5-HT4b-HEK 293 clone 9 cells
# test-settings: displacement of [3H]GR113808 0.1 nM, h5-HT4b-HEK 293 membranes, 30 min at 25° C.; read-out: pIC50 (5HT4 antagonistic data) (converted)
Kindly note that the scale is log10 and the underlying IC50 is in nM.

Solved entries (count: 5):
CNc1cc2c(c(C(=O)NC[C@@H]3CCN(CCCOC4CCCCC4)C[C@H]3O)c1)OCCCO2 [compound 34]: 1.50
N#CCc1cc2c(c(C(=O)NC[C@@H]3CCN(CCCO)C[C@H]3O)c1)OCCCO2 [compound 120]: 1.64
Nc1cc(C(=O)NC[C@@H]2CCN(CC3CCCO3)C[C@H]2O)c2c(c1Br)OCCCO2 (some centres unmarked) [compound 152]: 1.38
Cc1cc2c(c(C(=O)NC[C@@H]3CCN(CCCNS(C)(=O)=O)C[C@H]3O)c1)OCCCO2 [compound 189]: 0.27
Nc1cc(C(=O)NC[C@@H]2CCN(CCC3OCCO3)C[C@H]2O)c2c(c1Cl)OCCO2 [compound 14]: 1.22

Given Cc1cc2c(c(C(=O)NC[C@@H]3CCN(CCOCCO)C[C@H]3O)c1)OCCCO2 [compound 211] , respond with its log10(IC50).
0.47

Given CCCCN1CC[C@@H](CNC(=O)c2cc(NCC)cc3c2OCCCO3)[C@H](O)C1 [compound 161] , respond with its log10(IC50).
1.93

Given COCCCN1CC[C@@H](CNC(=O)c2cc(C#N)cc3c2OCCO3)[C@H](O)C1 [compound 247] , respond with its log10(IC50).
0.60

###

# tgt: h5-HT4b (Homo sapiens, UniProt Q13639)
# Construct: expressed in transfected cells; host or cells: HEK 293 (clone 9), membrane preparation
# protocol-text: 5HT4 antagonism: [3H]GR113808 binding to membranes of h5-HT4b-HEK 293 clone 9 cells
# test-settings: displacement of [3H]GR113808 0.1 nM, h5-HT4b-HEK 293 membranes, 30 min at 25° C.; read-out: pIC50 (5HT4 antagonistic data) (converted)
# Lookup of reported IC50 keyed by entry
Give the value in nM but do not write nM after it.

Solved entries (count: 5):
Nc1cc2c(c(C(=O)NC[C@@H]3CCN(CCCO)C[C@H]3O)c1)OCCCO2 [compound 112]: 13.2
CNc1cc2c(c(C(=O)NC[C@@H]3CCN(CCC4OCCO4)C[C@H]3O)c1)OCCO2 [compound 17]: 25.7
Cc1cc2c(c(C(=O)NC[C@@H]3CCN(CCCO)C[C@H]3O)c1)OCCCO2 [compound 168]: 2
CNc1cc2c(c(C(=O)NC[C@@H]3CCN(CCCO)C[C@H]3O)c1)OCCCO2 [compound 2]: 525
COCc1cc2c(c(C(=O)NC[C@@H]3CCN(CC4CCCO4)C[C@H]3O)c1)OCCCO2 (stereo partly drawn) [compound 125]: 16.2

Given COCCCN1CC[C@@H](CNC(=O)c2cc(N)cc3c2OCCO3)[C@H](O)C1 [compound 109] , respond with its IC50.
36.3

Given Cc1cc2c(c(C(=O)NC[C@@H]3CCN(CC4CCCO4)C[C@H]3O)c1)OCCCO2 (stereo partly drawn) [compound 186] , respond with its IC50.
5.01

Given N#CCc1cc2c(c(C(=O)NC[C@@H]3CCNC[C@H]3O)c1)OCCCO2 [compound 121] , respond with its IC50.
708

Given Cc1cc2c(c(C(=O)NCC3(O)CCN(CCCC(N)=O)CC3)c1)OCCCO2 [compound 253] , respond with its IC50.
31.6

Given COCCCN1CC[C@@H](CNC(=O)c2cc(C)cc3c2OCCCO3)[C@H](OC)C1 [compound 206] , respond with its IC50.
3.16
